Each recorded value in this set is attributed to ChEMBL document CHEMBL1221268.

- system_name: UniProt P55058
- Sequence (P55058 whole entry): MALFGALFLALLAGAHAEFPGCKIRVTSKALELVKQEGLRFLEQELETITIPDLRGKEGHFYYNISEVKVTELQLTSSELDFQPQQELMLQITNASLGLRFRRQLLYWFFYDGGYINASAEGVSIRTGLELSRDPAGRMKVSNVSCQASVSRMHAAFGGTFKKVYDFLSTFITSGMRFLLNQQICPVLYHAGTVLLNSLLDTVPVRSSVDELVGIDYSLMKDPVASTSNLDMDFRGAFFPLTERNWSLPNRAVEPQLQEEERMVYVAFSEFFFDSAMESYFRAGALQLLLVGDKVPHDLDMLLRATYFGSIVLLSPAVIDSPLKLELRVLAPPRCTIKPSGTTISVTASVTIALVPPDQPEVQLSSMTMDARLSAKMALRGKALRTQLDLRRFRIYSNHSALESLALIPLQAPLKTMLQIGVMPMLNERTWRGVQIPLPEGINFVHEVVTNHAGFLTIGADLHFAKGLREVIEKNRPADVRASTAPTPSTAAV
- experiment_notes: Inhibition of PLTP
- condition_notes: read-out: IC50
Assign pIC50 to each entry below.
Value format note: pIC50 is -log10 of concentration (mol/L); just state the number.

Lab book: pIC50 of COc1ccc(-c2nc(NC(=O)c3ccc([N+](=O)[O-])cc3)[se]c2Cc2ccccc2)cc1 noted as 4.07

# pIC50 (compound: CCCCc1[se]c(NC(=O)c2ccc(OC)c(OC)c2)nc1-c1ccc(OC)cc1 ) is 4.10

Lab book: pIC50 of O=C(Nc1nc(-c2ccccc2)c(-c2ccccc2)[se]1)c1ccc(O)c(O)c1 noted as 5.10

Value of measured pIC50 for the entry CCc1[se]c(NC(=O)c2ccc(OC)c(OC)c2)nc1-c1ccc(OC)cc1 : 4.00

Reported pIC50 ( O=C(Nc1nc(-c2ccccc2)c(-c2ccccc2)[se]1)c1cc(O)c(O)c(O)c1 ) = 4.60
